System: ARP-1
Experiment: Viable cells, multiple myeloma ARP-1
Format: cell-based, human
Conditions: 24 hours
Method: Viable and metabolically active cells were assayed using CellTiter-Blue (Promega) or PrestoBlue (Invitrogen) following manufacturer's instruction. In a 96 well plate format, 15×10^3 cells were pretreated with 0.1% Vehicle or increasing concentration of inhibitors as noted (for 16 h, 24 h, 48 h, and/or 72 hr) and fluorescence was detected on the SpectraMax M2e (Molecular Devices) after 30 min incubation with dye.
ENDPOINT NAME: IC50 (µM)
Respond with the bare value in µM.

Sample `O=C(O)COc1ccc(Br)cc1C=C1SC(=S)N(Cc2cccnc2)C1=O` , system: ARP-1. Its IC50 is 3.84

---

Biological target: SCF-Skp2 (Skp2-Cks1) (Homo sapiens, UniProt P61024+Q13309)
Construct: made in house; host or cells: cell-free: rabbit reticulocyte lysate (TNT T7 Coupled Reticulocyte Lysate System, Promega) from pcDNA3.1 plasmids
Sequence (Q13309 whole entry, one chain of several): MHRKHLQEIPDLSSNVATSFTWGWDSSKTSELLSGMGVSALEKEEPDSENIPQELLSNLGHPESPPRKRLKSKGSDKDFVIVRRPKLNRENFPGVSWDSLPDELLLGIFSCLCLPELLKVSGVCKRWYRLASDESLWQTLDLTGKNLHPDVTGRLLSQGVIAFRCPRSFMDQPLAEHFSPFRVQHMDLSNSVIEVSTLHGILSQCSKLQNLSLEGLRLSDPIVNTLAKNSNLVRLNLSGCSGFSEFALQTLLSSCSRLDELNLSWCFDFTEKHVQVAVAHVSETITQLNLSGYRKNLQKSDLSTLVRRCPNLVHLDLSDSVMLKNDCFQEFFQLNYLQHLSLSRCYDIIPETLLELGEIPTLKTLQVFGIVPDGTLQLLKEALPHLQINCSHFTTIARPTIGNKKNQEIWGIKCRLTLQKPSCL
Sequence (P63208 whole entry partner, one chain of several): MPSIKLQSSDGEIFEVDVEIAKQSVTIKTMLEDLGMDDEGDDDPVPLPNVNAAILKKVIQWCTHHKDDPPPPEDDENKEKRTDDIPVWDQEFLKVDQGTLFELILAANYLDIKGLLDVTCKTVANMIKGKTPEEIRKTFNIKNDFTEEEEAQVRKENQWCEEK
Sequence (Q13616 whole entry partner, one chain of several): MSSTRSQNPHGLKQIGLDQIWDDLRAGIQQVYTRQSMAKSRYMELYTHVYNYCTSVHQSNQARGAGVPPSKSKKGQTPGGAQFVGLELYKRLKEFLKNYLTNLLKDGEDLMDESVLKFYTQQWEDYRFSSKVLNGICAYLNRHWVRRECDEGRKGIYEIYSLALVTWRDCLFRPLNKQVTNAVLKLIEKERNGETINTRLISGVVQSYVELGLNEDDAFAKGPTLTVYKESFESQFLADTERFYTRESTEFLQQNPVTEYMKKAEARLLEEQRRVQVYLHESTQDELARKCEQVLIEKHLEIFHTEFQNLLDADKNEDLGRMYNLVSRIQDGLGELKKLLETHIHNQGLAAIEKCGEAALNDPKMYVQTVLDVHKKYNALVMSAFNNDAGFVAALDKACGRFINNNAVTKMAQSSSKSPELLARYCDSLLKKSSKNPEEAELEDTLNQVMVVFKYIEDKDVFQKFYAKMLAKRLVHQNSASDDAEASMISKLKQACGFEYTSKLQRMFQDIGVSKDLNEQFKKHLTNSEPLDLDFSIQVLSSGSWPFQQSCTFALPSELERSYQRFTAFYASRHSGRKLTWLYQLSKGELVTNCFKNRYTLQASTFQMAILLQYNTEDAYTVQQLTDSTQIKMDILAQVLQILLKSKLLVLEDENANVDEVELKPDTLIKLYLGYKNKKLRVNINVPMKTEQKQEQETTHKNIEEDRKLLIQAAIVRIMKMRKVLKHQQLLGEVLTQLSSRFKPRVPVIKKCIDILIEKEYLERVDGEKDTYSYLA
Sequence (P62877 whole entry partner, one chain of several): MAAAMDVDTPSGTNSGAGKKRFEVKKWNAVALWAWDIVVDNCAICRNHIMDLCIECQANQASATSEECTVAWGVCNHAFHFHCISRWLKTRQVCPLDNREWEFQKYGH
Test: In vitro ubiquitylation assay, Skp2-mediated p27 ubiquitylation (Wild-Type Cks1)
Type: biochemical
Settings: 50 μM compound, immunoblot for p27-(Ub)n
ENDPOINT NAME: Inhibition of Skp2-mediated p27 ubiquitylation

COC(=O)C1=C(C)N(c2ccc(Br)cc2)C(=O)C1=Cc1ccccc1O [Compound C2] = strongly inhibited
O=C(O)COc1ccc(Br)cc1C=C1SC(=S)N(Cc2cccnc2)C1=O [Compound C1] = active
O=C(NN=Cc1cc(Br)cc(Br)c1O)C(=Cc1ccccc1O)NC(=O)c1ccccc1 [Compound C20] = strongly inhibited
O=C(O)COc1ccc(C=C2SC(=O)N(CC(=O)c3ccc(Cl)cc3)C2=O)cc1 [Compound C16] = active

---

Tested on: JeKo-1
Test: Cell viability, JeKo-1 mantle cell lymphoma
Assay type: cell-based, human
Settings: 24 hours, CalcuSyn
Method: Viable and metabolically active cells were assayed using CellTiter-Blue (Promega) or PrestoBlue (Invitrogen) following manufacturer's instruction. In a 96 well plate format, 15×10^3 cells were pretreated with 0.1% Vehicle or increasing concentration of inhibitors as noted (for 16 h, 24 h, 48 h, and/or 72 hr) and fluorescence was detected on the SpectraMax M2e (Molecular Devices) after 30 min incubation with dye.
Field: pIC50. Provide a value for each of the compounds that follow.
Please keep in mind that pIC50 is minus log10 of the molar concentration; only the number is needed.

Entry `O=C(O)COc1ccc(Br)cc1C=C1SC(=S)N(Cc2cccnc2)C1=O` , tested on JeKo-1, has a reported pIC50 of 5.32

// compound `COC(=O)C1=C(C)N(c2ccc(Br)cc2)C(=O)C1=Cc1ccccc1O` , assay JeKo-1, pIC50 value: 5.03

---

Target: Q52L-Cks1 mutant (Homo sapiens, UniProt P61024+Q13309, Q52L)
Construct: made in house; host or cells: cell-free: rabbit reticulocyte lysate (TNT T7 Coupled Reticulocyte Lysate System, Promega) from pcDNA3.1 plasmids
Sequence (Q13309 whole entry): as the sequence (Q13309 whole entry, one chain of several) above
Sequence (P61024 whole entry Q52L): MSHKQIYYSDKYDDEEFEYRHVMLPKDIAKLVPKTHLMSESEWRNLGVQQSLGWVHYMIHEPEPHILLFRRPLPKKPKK
Sequence (P63208 whole entry partner): as the sequence (P63208 whole entry partner, one chain of several) above
Sequence (Q13616 whole entry partner): as the sequence (Q13616 whole entry partner, one chain of several) above
Sequence (P62877 whole entry partner): as the sequence (P62877 whole entry partner, one chain of several) above
Test: In vitro ubiquitylation assay with Q52L-Cks1 mutant
Type: biochemical
Conditions: 50 μM compound
ENDPOINT NAME: Inhibition of p27 ubiquitylation with Q52L-Cks1

O=C(O)COc1ccc(Br)cc1C=C1SC(=S)N(Cc2cccnc2)C1=O = inactive
COC(=O)C1=C(C)N(c2ccc(Br)cc2)C(=O)C1=Cc1ccccc1O = strongly inhibited
O=C(NN=Cc1cc(Br)cc(Br)c1O)C(=Cc1ccccc1O)NC(=O)c1ccccc1 = strongly inhibited
O=C(O)COc1ccc(C=C2SC(=O)N(CC(=O)c3ccc(Cl)cc3)C2=O)cc1 = inactive

---

Target: His6-Skp2-Skp1-Cks1 complex (Homo sapiens, UniProt P61024+Q13309)
Construct: His6-tagged human Skp2 (residues 89-424); Human full-length Cks1 was produced as described
Sequence (Q13309 89-424 limits assumed): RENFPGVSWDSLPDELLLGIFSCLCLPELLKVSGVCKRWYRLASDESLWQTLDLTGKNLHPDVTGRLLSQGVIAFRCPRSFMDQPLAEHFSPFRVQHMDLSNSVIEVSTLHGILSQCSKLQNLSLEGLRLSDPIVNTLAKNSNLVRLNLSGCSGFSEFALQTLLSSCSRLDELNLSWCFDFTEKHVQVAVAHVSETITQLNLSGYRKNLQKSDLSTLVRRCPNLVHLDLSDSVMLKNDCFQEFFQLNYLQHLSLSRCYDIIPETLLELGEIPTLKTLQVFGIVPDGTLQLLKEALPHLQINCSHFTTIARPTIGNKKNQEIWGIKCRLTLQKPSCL
Sequence (P61024 whole entry, the tested form may be a part): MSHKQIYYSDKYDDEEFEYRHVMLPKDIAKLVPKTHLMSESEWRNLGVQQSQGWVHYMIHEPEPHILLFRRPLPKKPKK
Assay: Surface plasmon resonance (SPR)
Conditions: 1:1 interaction model; 25° C.
ENDPOINT NAME: Kd
Quick note: number first, unit second.

Value sought: Kd, system His6-Skp2-Skp1-Cks1 complex (Homo sapiens, UniProt P61024+Q13309), item `O=C(NN=Cc1cc(Br)cc(Br)c1O)C(=Cc1ccccc1O)NC(=O)c1ccccc1` . Result: 47 µM

---

Target: Ubc3 (Homo sapiens, UniProt P49427)
Construct: purchased Boston Biochem
Sequence (P49427 1-236): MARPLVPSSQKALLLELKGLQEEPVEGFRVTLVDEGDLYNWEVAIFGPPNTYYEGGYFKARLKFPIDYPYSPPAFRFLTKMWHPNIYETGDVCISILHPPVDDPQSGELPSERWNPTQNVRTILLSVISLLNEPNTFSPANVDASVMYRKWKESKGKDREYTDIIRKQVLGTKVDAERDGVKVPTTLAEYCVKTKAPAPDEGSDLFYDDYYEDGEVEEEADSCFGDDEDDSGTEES
Assay: E2 ubiquitin charging (Ubc3~Ub conjugates)
Assay type: biochemical
Settings: 50 μM inhibitor
ENDPOINT NAME: E2 charging (Ubc3~Ub)

O=C(O)COc1ccc(C=C2SC(=O)N(CC(=O)c3ccc(Cl)cc3)C2=O)cc1 = unaffected
COC(=O)C1=C(C)N(c2ccc(Br)cc2)C(=O)C1=Cc1ccccc1O = unaffected
O=C(O)COc1ccc(Br)cc1C=C1SC(=S)N(Cc2cccnc2)C1=O = unaffected
O=C(NN=Cc1cc(Br)cc(Br)c1O)C(=Cc1ccccc1O)NC(=O)c1ccccc1 = unaffected
